ASSAY METHOD TEXT: PET hydrolysis, aromatic products released after 48 h (umol product/mg enzyme); higher = more PET depolymerization activity
CONDITION INFO: substrate: cryPow; 60 °C; pH 6.5
MEASURED METRIC: PET hydrolysis
Form field (numeric): enter value without unit.

Task item: Consider the sequence QYQKGPDPTVSALERTGSFATRTTTVSRTSASGFGGGTIYYPTASGSYGAIAISPGFTAYQSSISWMGTRLASHGFVVITIDTITTSDQPDSRGRQLKAALDKVVSLSRSSSSPIYNKVDTTRLAVAGHSMGGGGTLAAARDYPSLKAAVPLAPWHTTKSWSRVTVPTLIIGGSTDTIASVGLHSIPFYTSLPSSTNKAYMELSGEGHFFPQTSSNYPLVGRYMISWFKRFVDGDSRYSPFLCGAQHQADLGLFSDISDYRENCPY [ESM169] . State its measured PET hydrolysis.
Reply: 24.5

Task item: Consider the sequence MSNPYQRGPNPTRSALTADGPFSVATYTVSRLSVSGFGGGVIYYPTGTSLTFGGIAMSPGYTADASSLAWLGRRLASHGFVVLVINTNSRFDGPDSRASQLSAALNYLRTSSPSAVRARLDANRLAVAGHSMGGGGTLRIAEQNPSLKAAVPLTPWHTDKTFNTSVPVLIVGAEADTVAPVSQHAIPFYQNLPSTTPKVYVELCNASHIAPNSNNAAISVYTISWMKLWVDNDTRYRQFLCNVNDPALCDFRTNNRHCQLEHHHHHH [LCC-ICCG] . State its measured PET hydrolysis.
Reply: 208

Task item: Consider the sequence APPARVAALATTAYQRGPAPTLSGVRAALGPFSYSTASVSAAATGYTFGGGTVYYPDDTSQGTFGGIAVTPGYTGTEGSIAWLGPRLASQGFVVITIATKSLYDQPTARGQQLLAALDYLKTYSPAAVRQRLDPQRLAVSGHSMGGGGALYAVWSRPSLKAAVPLAPYHTIKNWSAITVPTLIEAGTADTVTPVGTFAEPIYQSLTGASERAYAEVAGANHLTFTAENPLIGGLEVAWMKRFVDDDARYDQFLCPAPTDPGLTEYRDSCPTS [TEP101] . State its measured PET hydrolysis.
Reply: 7.5
